- System: MCF7 breast
- assay_summary: NCI tumour cell line growth inhibition, 48 h
readout_label: GI50

>>> result("CC(C)=CC(=O)N[C@@H]1CC2CCC3C(CC[C@@]4(C)C3CC[C@@H]4C(C)N(C)C)[C@@]2(C)C[C@@H]1O (some centres undefined)")
"2950 nM"
>>> result("O=C(Nc1ccc(Oc2ccc(NC(=O)Nc3ccc([N+](=O)[O-])cc3)cc2)cc1)Nc1ccc([N+](=O)[O-])cc1")
"1680 nM"
>>> result("CCOC(=O)c1ccc(N(C=O)CCC(=O)CCl)cc1")
"53.2 nM"
>>> result("O=C(Cc1ccc(Nc2ccnc(C(F)(F)F)c2)cc1)Nc1cc(Cl)ccc1O")
"4990 nM"
>>> result("Oc1ccc(Oc2cnc3cc(Cl)ccc3n2)cc1")
"38100 nM"
>>> result("CCSc1ccc([C@@H]2[C@@H](N)C(=O)N2c2cc(OC)c(OC)c(OC)c2)cc1")
"39.2 nM"
>>> result("O=C1/C(=C/c2ccc(Cl)cc2)CN(C(=O)CCN2CCC(=NO)CC2)C/C1=C\\c1ccc(Cl)cc1")
"284 nM"
>>> result("C[C@@H](Oc1cc(-n2cnc3ccc(OCC4CCN(C)CC4)cc32)sc1C(N)=O)c1ccccc1Cl")
"12.3 nM"
>>> result("O=C(Cn1c(C(=O)c2ccc(Cl)cc2)nc(-c2ccccc2)c1-c1ccccc1)c1ccc(Cl)cc1")
"> 100000 nM"

Data credit: PubChem BioAssay (NCI)
